Catalogue of normalized growth values
- measurementProtocol: chemical genetic growth profiling, strain panel (AID 1159580);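 further: tested at 20 µM; growth read once vehicle control cultures reached saturation at 30 °C; 1 = growth at the plate median or of vehicle wells; lower values mean less growth of the strain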
- conditionInfo: S. cerevisiae deletion strains, growth OD, locus YEL037C, strain rad23, hits give low values
The whole screen tested about 5,500 compounds, of which about 2,000 (36%) were called active. Roughly 18% stayed inconclusive and do not appear here. The list shows a part of the results.
experimentalReadout: normalized growth

INSERT INTO assay_data (compound, reported) VALUES
  ('CC1(C)S[C@@H]2[C@H](NC(=O)Cc3ccccc3)C(=O)N2[C@H]1C(=O)O', 1.03),
  ('COc1cccc(OC)c1C(=O)N[C@@H]1C(=O)N2[C@@H]1SC(C)(C)[C@@H]2C(=O)O', 0.997),
  ('COc1cc2c(cc1OC)[C@@]13CCN4CC5=CCOC6CC(=O)N2C1[C@H]6[C@H]5C[C@H]43 (some centres undefined)', 0.989),
  ('COC(=O)C[C@H]1C(C)(C)[C@@H](O)[C@@H]2CC3=C4C=C(OC)O[C@@H](c5ccoc5)[C@]4(C)CCC3[C@@]1(C)C2=O (some centres undefined)', 0.988);

---

- measurementProtocol: chemical genetic growth profiling, strain panel (AID 1159580);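 further: tested at 20 µM; growth read once vehicle control cultures reached saturation at 30 °C; 1 = growth at the plate median or of vehicle wells; lower values mean less growth of the strain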
- conditionInfo: S. cerevisiae deletion strains, growth OD, locus YBR009C, strain hhf1, hits give low values
In all, about 5,500 compounds went through this assay and about 2,000 (36%) were called active. Inconclusive results (about 18%) are left out. Some of the results follow. *1 amine or outer side, *2 acyl side, *3 side chain or, on linkers, in order; H or OH if unused. Where a SMILES comes first, the peptide text is derived from it. Bridges are numbered along the chain shown (N, C = ends). [ ]: non-standard residue; d: D form. The star is where a group is joined. ξ: configuration not given here. ΔAla(E,3-NHCONH2) = NC(=O)N/C=C(/N)C(=O)O; X2 = NC1=NCCC(C(N[*:1])C(=O)[*:2])N1; ξβ3hOrn = NCCCC(N)CC(=O)*; Dap = NC[CH](N)C(=O)O
Catalogue of normalized growth values
experimentalReadout: normalized growth

INSERT INTO results (compound, reported) VALUES
  ('CNS(=O)(=O)Cc1ccc2[nH]cc(CCN(C)C)c2c1', 1.03),
  ('COc1cc(-c2coc3cc(O[C@@H]4O[C@H](CO)[C@@H](O)[C@H](O)[C@H]4O)c(OC)c(O)c3c2=O)cc(O)c1OC', 0.986),
  ('O=C(O)c1cc(=O)c2cccc(O)c2[nH]1', 1),
  ('O=C(O)c1cc(=O)c2c(Cl)cc(Cl)cc2[nH]1', 1),
  ('CN(C)CCc1c[nH]c2ccc(CS(=O)(=O)N3CCCC3)cc12', 0.925),
  ('CCCCc1nc(Cl)c(CO)n1Cc1ccc(-c2ccccc2-c2nn[nH]n2)cc1', 0.993),
  ('O=C(CCc1ccc(O)cc1)c1c(O)cc(O)cc1O[C@@H]1O[C@H](CO)[C@@H](O)[C@H](O)[C@H]1O', 1.02),
  ('OC(c1cc(C(F)(F)F)nc2c(C(F)(F)F)cccc12)C1CCCCN1 (centres undefined)', 1.01),
  ('COc1cc2c(cc1OC)[C@@]13CCN4CC5=CCOC6CC(=O)N2C1[C@H]6[C@H]5C[C@H]43 (some centres undefined)', 0.994),
  ('COc1c2c(cc3c1OCO3)C13C=C[C@H](OC)CC1N(C2)CC3O (some centres undefined)', 1),
  ('O=c1oc2c(O)c(O)cc3c(=O)oc4c(O)c(O)cc1c4c23', 0.754),
  ('COc1cc2c(cc1OC)[C@@H]1C(=O)c3ccc4c(c3O[C@@H]1CO2)CC(C(C)C)O4 (some centres undefined)', 0.938),
  ('CN(C)CCc1c[nH]c2ccc(C[C@H]3COC(=O)N3)cc12', 1.01),
  ('COC(=O)C[C@H]1C(C)(C)[C@@H](O)[C@@H]2CC3=C4C=C(OC)O[C@@H](c5ccoc5)[C@]4(C)CCC3[C@@]1(C)C2=O (some centres undefined)', 1.01),
  ('CC(NCCC(c1ccccc1)c1ccccc1)c1ccccc1 (centres undefined)', 0.953),
  ('CCN(CC)CCNC(=O)c1cc(Cl)c(N)cc1OC', 0.987),
  ('NCCc1cc(O)c(O)cc1O', 0.963),
  ('Cc1c(NC(=O)c2cccnc2)c(=O)n(-c2ccccc2)n1C', 0.966),
  ('NCCCC(N)CC(=O)NCC1NC(=O)C(CO)NC(=O)C(N)CNC(=O)C(C2CCN=C(N)N2)NC(=O)/C(=C\NC(N)=O)NC1=O (stereo not drawn) (H-[Dap]S[Dap](ξβ3hOrn)[ΔAla(E,3-NHCONH2)][X2]; lactam 1-C; configuration not given here)', 0.975);

---

- measurementProtocol: chemical genetic growth profiling, strain panel (AID 1159580);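 further: tested at 20 µM; growth read once vehicle control cultures reached saturation at 30 °C; 1 = growth at the plate median or of vehicle wells; lower values mean less growth of the strain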
- conditionInfo: S. cerevisiae deletion strains, growth OD, locus YLR262C, strain YPT6, hits give low values
The whole screen tested about 5,500 compounds, of which about 2,000 (36%) were called active. Roughly 18% stayed inconclusive and do not appear here. This is one part of the list.
experimentalReadout: normalized growth

INSERT INTO measurements (compound, experimentalreadout, reported) VALUES
  ('COc1cc(/C=C2/SC(=S)NC2=O)cc(OC)c1OC', 'normalized growth', '0.73 (active)'),
  ('NC[C@H]1O[C@H](O[C@H]2[C@H](O)[C@@H](O[C@H]3O[C@H](CO)[C@@H](O)[C@H](N)[C@H]3O)[C@H](N)C[C@@H]2N)[C@H](N)C[C@@H]1O', 'normalized growth', '1.05 (inactive)'),
  ('O=C(CCc1ccc(O)cc1)c1c(O)cc(O)cc1O[C@@H]1O[C@H](CO)[C@@H](O)[C@H](O)[C@H]1O', 'normalized growth', '1.14 (inactive)'),
  ('COc1ccc([C@H]2COc3c(ccc(O)c3OC)C2)c(OC)c1O', 'normalized growth', '0.939 (inactive)'),
  ('NC(N)=NC(N)=Nc1ccccc1', 'normalized growth', '1.05 (inactive)'),
  ('CC1(C)S[C@@H]2[C@H](NC(=O)Cc3ccccc3)C(=O)N2[C@H]1C(=O)O', 'normalized growth', '1.02 (inactive)'),
  ('CC(=O)Oc1cc2c(c(C)c1OC(C)=O)CC1OC13C2(C)CCC1(C)C2CC(C)(C(=O)O)CCC2(C)CCC13C (stereo not given)', 'normalized growth', '0.853 (inactive)'),
  ('Cn1c(=O)c(-c2ccccc2)c(O)c2ccccc21', 'normalized growth', '0.81 (active)'),
  ('CN(C)/C=C1/C(=O)NN=C1CSc1ccccn1', 'normalized growth', '1.02 (inactive)'),
  ('CN(C(=O)Nc1ccccc1)n1cnc2ccccc2c1=O', 'normalized growth', '1.01 (inactive)'),
  ('COc1ccc2c(c1OC)OC[C@@H](c1ccc(OC)c(OC)c1OC)C2', 'normalized growth', '1.14 (inactive)'),
  ('Cc1onc(-c2c(Cl)cccc2Cl)c1C(=O)N[C@@H]1C(=O)N2[C@@H]1SC(C)(C)[C@@H]2C(=O)O', 'normalized growth', '1.02 (inactive)'),
  ('COc1cc(C=Nc2ccc(F)cc2)cc(OC)c1OC', 'normalized growth', '0.98 (inactive)'),
  ('Cc1onc(-c2ccccc2)c1C(=O)NC1C(=O)N2[C@@H]1SC(C)(C)[C@@H]2C(=O)O (stereo not given in full)', 'normalized growth', '1.04 (inactive)'),
  ('COc1cccc(Nc2nc3ccccc3s2)c1', 'normalized growth', '0.187 (active)'),
  ('COc1cc(/C=C/C=O)cc(OC)c1OC', 'normalized growth', '1.13 (inactive)'),
  ('COc1cc(-c2coc3cc(O[C@@H]4O[C@H](CO)[C@@H](O)[C@H](O)[C@H]4O)c(OC)c(O)c3c2=O)cc(O)c1OC', 'normalized growth', '1 (inactive)'),
  ('CC[C@H]1CN2CCc3cc(OC)c(OC)cc3C2C[C@@H]1CC1NCCc2cc(OC)c(OC)cc21 (stereo not given in full)', 'normalized growth', '1.06 (inactive)'),
  ('c1cc(C2CCCCC2)ccc1C1CCCCC1', 'normalized growth', '1.04 (inactive)'),
  ('CC(=O)OCC(=O)[C@@]12OC3(CCCC3)O[C@@H]1CC1C3CCC4=CC(=O)C=C[C@]4(C)[C@@]3(F)[C@@H](O)C[C@@]12C (stereo not given in full)', 'normalized growth', '0.961 (inactive)');

---

- measurementProtocol: chemical genetic growth profiling, strain panel (AID 1159580);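 further: tested at 20 µM; growth read once vehicle control cultures reached saturation at 30 °C; 1 = growth at the plate median or of vehicle wells; lower values mean less growth of the strain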
- conditionInfo: S. cerevisiae deletion strains, growth OD, locus YLR039C, strain RIC1
Screen size: about 5,500 compounds; about 2,000 (36%) were called active. About 18% were inconclusive and are not listed. Rule as the data show it: active = normalized growth mostly below about 0.91 (no sharp cut-off); inconclusive = no clear call, values can overlap the other calls; inactive = mostly above about 0.92. The list shows a part of the results. Where a SMILES comes first, the peptide text is derived from it. Side-chain parts run from the residue outwards. [ ]: non-standard residue; d: D form. The star is where a group is joined. X1 = CCC(C)C(N)C1=NC(C(=O)*)CS1; Orn = NCCC[CH](N)C(=O)O
Outcome codes: 1 (yes) for active, 0 (no) for inactive

INSERT INTO results (compound, classname) VALUES
  ('CC(C)CC1NC(=O)C(CCCN)NC(=O)C(C(C)C)NC(=O)C2CCCN2C(=O)C(Cc2ccccc2)NC(=O)C(CC(C)C)NC(=O)C(CCCN)NC(=O)C(C(C)C)NC(=O)C2CCCN2C(=O)C(Cc2ccccc2)NC1=O (stereo unspecified) (cyclo(FPV[Orn]LFPV[Orn]L); configuration not given here)', '1 (yes)'),
  ('COC1(C)CCC2OC2(C)CCC2C1CC2(C)C (stereo unspecified)', '0 (no)'),
  ('Cc1cc(C(C)(C)C)cc(C)c1CC1=NCCN1', '0 (no)'),
  ('Cc1cc(C(C)(C)C)c(O)c(C)c1CC1=NCCN1', '0 (no)'),
  ('C1CCN(CCC2CCCCN2)CC1 (stereo unspecified)', '0 (no)'),
  ('CCC(C)C(N)C1=NC(C(=O)NC(CC(C)C)C(=O)NC(CCC(=O)O)C(=O)NC(C(=O)NCCCCC2NC(=O)C(CC(N)=O)NC(=O)C(CC(=O)O)NC(=O)C(Cc3cnc[nH]3)NC(=O)C(Cc3ccccc3)NC(=O)C(C(C)CC)NC(=O)C(CCCN)NC2=O)C(C)CC)CS1 (stereo not drawn) (cyclo(DNK([Ile-Glu-Leu-X1])[Orn]IFH); configuration not given here)', '0 (no)');
